assay name: Nav 1.7 or Nav 1.5 IWQ In Vitro Assay: HEK 293 Cells stably transfected with either Nav 1.7 or Nav 1.5 were recorded in population patch-clamp mode with the IonWorks® Quattro automated electrophysiology system in accordance with the manufacturer's specifications (Molecular Devices, LLC, Sunnyvale, Calif.). Sodium channel currents were measured in response to a train of depolarizations that induced successively greater inactivation.Cells were held at −110 mV for three seconds (Nav 1.7) or half a second (Nav 1.5) from a holding voltage of −15 mV, then put through a series of 26 pulses of 150 msec duration to −20 mV at a frequency of 5 Hz. Cells were then left unclamped for a period of 3 to 8 minutes while a single concentration of test compound was added. Cells were then reclamped and put through the same voltage protocol. Current at the end of the 26th pulse to −20 mV was subtracted from the peak current evoked by the 26th pulse to −20 mV to correct for leak current. Percent block was calculated for each concentration in duplicate, and IC50 curves were fitted to percent block as a function of concentration.
conditions: HEK293
Measured pIC50, listed per entry.
Recall that pIC50 is obtained by taking minus log10 of the concentration measured in molar.

A selection of reference data follows.
INSERT INTO measurements (compound_smiles, measured_attribute, recorded_measurement) VALUES
  ('COc1cc(C#CC2(C(F)(F)F)CC2)c(F)cc1-n1c(=O)ccc2cc(S(=O)(=O)Nc3ccon3)ccc21', 'pIC50', 8.10),
  ('COc1cc(C#CC2CCCC2)c(Cl)cc1-n1c(=O)ccc2cc(S(=O)(=O)Nc3ccon3)ccc21', 'pIC50', 8.00),
  ('COc1cc(C#CC2(OCC(F)(F)F)CCCC2)c(F)cc1-n1c(=O)ccc2cc(S(=O)(=O)Nc3ccon3)ccc21', 'pIC50', 8.01),
  ('COc1cc(C#CC2CCCC2)c(F)cc1-n1c(=O)ccc2cc(S(=O)(=O)Nc3ccon3)ccc21', 'pIC50', 8.34);

// moving on: another record for pIC50
Request: Please list pIC50 recorded for the compound "COc1cc(C#C[C@@H]2C[C@@H]2C(F)(F)F)c(F)cc1-n1c(=O)ccc2cc(S(=O)(=O)Nc3ccon3)ccc21"
Result: 8.26

meta.source: ChEMBL document CHEMBL5727835
